Measured Target: SARS-CoV-2 B.1.1.7 spike protein (SARS-CoV-2 B.1.1.7 (Alpha), UniProt P0DTC2 13-1213)
Protocol Description: ELISA
Recorded Metric: IC50 (nM)

{"Binder": "2-H7-A (antibody, V domains shown) VH: QAYLQQSGAELVRPGASVKMSCKASGYTFTGYTMHWVKQTPRQGLEWIGAIYPENGDTSYNQKFKGKATLTVDKSSSTAYMQLSSLTSEDSAVYFCARDGYDVLYGMDYWGQGTSVTVSS VL: DIVLTQSPASLAVSLGQRATISCRASKSVSTSGYSYMHWYQQKPGQPPKLLIYLASNLESGVPARFSGSGSGTDFTLNIHPVEEEDAATYYCQHSRELPWTFGGGTKLDIK", "Recorded Metric": "IC50", "Recorded Value": 9.88}
